Test: CT900 plasma pharmacokinetics, noncompartmental analysis
Format: in vivo, human
Settings: human, plasma, iv, 2 mg/m2, Vss, 2 mg/m^2 i.v., Cycle 1 Day 1; Mean, N 4
Experimental Readout: Vd

Determine its reported Vd: C#CCN(c1ccc(C(=O)N[C@@H](CCC(=O)N[C@H](CCC(=O)O)C(=O)O)C(=O)O)cc1)[C@H]1CCc2cc3nc(CO)[nH]c(=O)c3cc21
8.52 L

###

Test: CT900 plasma pharmacokinetics, noncompartmental analysis
Assay type: in vivo, human
Details: human, plasma, iv, 1 mg/m2, AUClast, 1 mg/m^2 i.v., Cycle 1 Day 1; Mean, N 3
Experimental Readout: AUC(0-t) (ng·h/mL)
One number for each entry, in ng·h/mL.

Determine its reported AUC(0-t): C#CCN(c1ccc(C(=O)N[C@@H](CCC(=O)N[C@H](CCC(=O)O)C(=O)O)C(=O)O)cc1)[C@H]1CCc2cc3nc(CO)[nH]c(=O)c3cc21
1650
